- tgt: CDK2/CycE (Homo sapiens, UniProt P24941)
- protocol summary: CDK2/CycE kinase assay (TR-FRET, 2 mM ATP)
- assay context: read-out: CDK2/CyclinE, 2 mM ATP (high ATP) IC50-[mol/l] (median)
Give IC50 for every item shown.

Q. Return value of IC50 for input Fc1cccc2[nH]c(CNc3nc(N4CCOCC4)nn4c(Br)cnc34)nc12 , no commentary.
A. > 20 µM

Q. Consider the molecule Fc1ccc2[nH]c(CNc3nc(N4CCOCC4)nn4c(C(F)(F)F)cnc34)nc2c1F and give its recorded IC50.
A. > 20 µM

Q. Hello, please tell me recorded IC50 for this one: C[C@@H]1CN(c2nc(NCc3nc4ccccc4[nH]3)c3ncc(C(F)(F)F)n3n2)C[C@H](C)N1.O=CO
A. > 20 µM

Q. Supply recorded IC50 for CN1CCN(c2nc(NCc3nc4c(F)c(F)ccc4[nH]3)c3ncc(C(F)(F)F)n3n2)CC1 here.
A. > 20 µM

Q. Look up and report measured IC50 for this entry: COc1cccc2[nH]c(CNc3nc(N4CCNCC4)nn4c(Br)cnc34)nc12
A. 14.2 µM

Q. Specify IC50 for Fc1ccc2[nH]c(CNc3nc(N4CCOCC4)nn4c(Br)cnc34)nc2c1F and stop.
A. > 20 µM

Q. Tell me measured IC50 for CN1CCN(c2nc(NCc3nc4ccccc4[nH]3)c3ncc(C(F)(F)F)n3n2)CC1 please.
A. > 20 µM

Q. Provide IC50 value for the following molecule: COc1cccc2[nH]c(CNc3nc(N4C[C@@H](C)N[C@@H](C)C4)nn4c(Br)cnc34)nc12
A. > 20 µM

Q. Fill in reported IC50 for this entry: C[C@@H]1CN(c2nc(NCc3nc4cc(F)ccc4[nH]3)c3ncc(Br)n3n2)C[C@H](C)N1
A. > 20 µM

Q. Give the value of IC50 reported for the following: CN(CC(C)(C)O)c1nc(NCc2nc3ccccc3[nH]2)c2ncc(C(F)(F)F)n2n1
A. 4.78 µM

Q. Provide only the value of recorded IC50 for CN1CCN(c2nc(NCc3nc4ccccc4[nH]3)c3ncc(Br)n3n2)CC1
A. > 20 µM

Q. For the molecule COc1cccc2[nH]c(CNc3nc(N4CCOCC4)nn4c(Br)cnc34)nc12 , give its reported IC50.
A. 5.74 µM

Q. Identify IC50 associated with the molecule C[C@@H]1CN(c2nc(NCc3nc4c(F)cccc4[nH]3)c3ncc(Br)n3n2)C[C@H](C)N1
A. > 20 µM

Q. Answer with the recorded IC50 of C[C@@H]1CN(c2nc(NCc3nc4ccccc4[nH]3)c3ncc(Br)n3n2)C[C@H](C)O1 only.
A. > 20 µM

Q. Answer with the recorded IC50 of CN1CCN(c2nc(NCc3nc4cc(F)ccc4[nH]3)c3ncc(Br)n3n2)CC1 only.
A. > 20 µM

Q. Look up IC50 of C[C@@H]1CN(c2nc(NCc3nc4ccccc4[nH]3)c3ncc(Br)n3n2)C[C@H](C)N1 and report it.
A. > 20 µM
